Each entry below lists one item and its recorded pIC50 value.
- TARGET: Rat intestinal isomaltase (Rattus norvegicus)
- Sequence (P23739 whole entry): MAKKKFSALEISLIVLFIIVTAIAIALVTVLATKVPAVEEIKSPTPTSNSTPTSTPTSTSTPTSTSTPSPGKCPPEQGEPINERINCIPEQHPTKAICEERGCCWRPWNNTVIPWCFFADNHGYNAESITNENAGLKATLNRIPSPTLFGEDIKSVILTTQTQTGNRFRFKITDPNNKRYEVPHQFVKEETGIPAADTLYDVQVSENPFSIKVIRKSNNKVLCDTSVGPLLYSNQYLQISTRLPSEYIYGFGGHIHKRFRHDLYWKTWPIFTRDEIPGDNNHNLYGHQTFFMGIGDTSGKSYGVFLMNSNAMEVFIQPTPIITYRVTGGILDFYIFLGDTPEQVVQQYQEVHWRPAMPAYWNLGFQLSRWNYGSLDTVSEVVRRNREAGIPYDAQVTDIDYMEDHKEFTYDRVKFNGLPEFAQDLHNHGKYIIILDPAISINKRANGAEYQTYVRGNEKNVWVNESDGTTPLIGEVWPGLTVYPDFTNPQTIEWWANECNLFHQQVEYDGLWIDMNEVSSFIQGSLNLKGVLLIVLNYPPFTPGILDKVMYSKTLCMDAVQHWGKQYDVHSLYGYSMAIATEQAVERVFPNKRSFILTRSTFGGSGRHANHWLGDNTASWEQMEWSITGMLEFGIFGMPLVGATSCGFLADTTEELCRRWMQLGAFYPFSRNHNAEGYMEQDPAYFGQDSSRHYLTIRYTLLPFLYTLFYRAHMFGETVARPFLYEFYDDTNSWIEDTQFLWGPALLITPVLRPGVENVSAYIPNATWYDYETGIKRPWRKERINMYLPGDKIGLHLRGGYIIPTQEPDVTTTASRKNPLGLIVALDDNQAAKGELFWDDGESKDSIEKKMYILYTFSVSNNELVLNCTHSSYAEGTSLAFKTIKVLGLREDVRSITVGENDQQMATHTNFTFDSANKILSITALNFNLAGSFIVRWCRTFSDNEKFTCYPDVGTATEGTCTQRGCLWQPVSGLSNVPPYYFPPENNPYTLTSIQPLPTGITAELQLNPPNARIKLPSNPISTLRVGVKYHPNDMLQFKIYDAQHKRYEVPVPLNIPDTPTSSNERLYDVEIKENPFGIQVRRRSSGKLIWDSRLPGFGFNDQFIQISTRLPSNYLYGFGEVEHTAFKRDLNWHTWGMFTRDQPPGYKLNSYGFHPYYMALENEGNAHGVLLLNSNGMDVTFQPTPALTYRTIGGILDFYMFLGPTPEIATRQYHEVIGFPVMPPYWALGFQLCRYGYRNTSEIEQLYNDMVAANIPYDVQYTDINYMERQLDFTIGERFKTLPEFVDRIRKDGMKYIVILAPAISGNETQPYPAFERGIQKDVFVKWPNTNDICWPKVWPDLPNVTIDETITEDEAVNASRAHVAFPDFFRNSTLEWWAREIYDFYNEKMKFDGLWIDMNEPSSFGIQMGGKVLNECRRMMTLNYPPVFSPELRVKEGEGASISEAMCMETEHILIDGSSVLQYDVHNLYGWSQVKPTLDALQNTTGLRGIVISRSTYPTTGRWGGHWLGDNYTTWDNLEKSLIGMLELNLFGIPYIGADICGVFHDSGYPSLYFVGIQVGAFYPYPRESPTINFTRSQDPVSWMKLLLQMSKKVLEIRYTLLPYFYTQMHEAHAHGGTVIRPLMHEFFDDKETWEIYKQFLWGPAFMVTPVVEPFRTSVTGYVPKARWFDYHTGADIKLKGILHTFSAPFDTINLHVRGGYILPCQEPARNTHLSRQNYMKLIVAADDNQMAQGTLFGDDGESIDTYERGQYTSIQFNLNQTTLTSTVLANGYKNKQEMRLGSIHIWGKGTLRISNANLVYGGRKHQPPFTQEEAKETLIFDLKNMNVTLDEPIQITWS
- TEST DESCRIPTION: Inhibition of rat intestinal isomaltase (natural substrate, glucose release)
- RECORDED CONDITIONS: isolated enzyme in vitro; mean of three measurements; read-out: IC50, α-Glucosidase, Rat intestinal isomaltase
Remember, pIC50 is on a log scale: it is -log10 of the molar concentration.

compound="OC[C@H]1NC[C@H](O)[C@@H](O)[C@@H]1O [Compound 1, D-1-deoxynojirimycin, reference compound]" test_value=6.10

Kindly consider the entry below.
Value (pIC50, Rat intestinal isomaltase (Rattus norvegicus)) for record CCCCN1CC(O)C(O)C(O)C1CO [Compound 2, N-butyl-D-1-deoxynojirimycin, reference compound] = 5.80
